- assay_comment: Specificity (blocking) study with excess DOTA-LM3
- test_parameters: athymic nude Foxn1^nu, mouse, tumor, 0.15 MBq, total radioactivity, Uptake Tumor, 4 hours post-injection, non-blocking
Where a SMILES comes first, the peptide text is derived from it. Bridges are numbered along the chain shown (N, C = ends). [ ]: non-standard residue; d: D form. The star is where a group is joined. X2 = O=C(O)CN1CCN(CC(=O)O)CCN([C@H](CCC(=O)*)C(=O)O)CC1; dPhe(4-NHCONH2) = NC(=O)Nc1ccc(C[C@@H](N)C(=O)O)cc1; Phe(4-Cl) = N[C@@H](Cc1ccc(Cl)cc1)C(=O)O
reported_metric: tissue uptake at 4 h (%ID/g)
Express it in %ID/g; write the number only.

Write down tissue uptake at 4 h measured for item C[C@@H](O)[C@@H]1NC(=O)[C@H](CCCCN)NC(=O)[C@@H](Cc2ccc(NC(N)=O)cc2)NC(=O)[C@H](Cc2ccc(O)cc2)NC(=O)[C@H](NC(=O)[C@H](Cc2ccc(Cl)cc2)NC(=O)CC[C@H](C(=O)O)N2CCN(CC(=O)O)CCN(CC(=O)O)CC2)CSSC[C@@H](C(=O)N[C@H](Cc2ccc(O)cc2)C(N)=O)NC1=O [[^64Cu]Cu-NODAGA-LM3, metal not drawn] (X2-[Phe(4-Cl)][dC]Y[dPhe(4-NHCONH2)]KTC[dY]-NH2; disulfide 2-7) 37.9
